- assayedTarget: JAK2 kinase activity on STAT5 in TF1 cells (Homo sapiens, UniProt O60674)
- Sequence (O60674 whole entry): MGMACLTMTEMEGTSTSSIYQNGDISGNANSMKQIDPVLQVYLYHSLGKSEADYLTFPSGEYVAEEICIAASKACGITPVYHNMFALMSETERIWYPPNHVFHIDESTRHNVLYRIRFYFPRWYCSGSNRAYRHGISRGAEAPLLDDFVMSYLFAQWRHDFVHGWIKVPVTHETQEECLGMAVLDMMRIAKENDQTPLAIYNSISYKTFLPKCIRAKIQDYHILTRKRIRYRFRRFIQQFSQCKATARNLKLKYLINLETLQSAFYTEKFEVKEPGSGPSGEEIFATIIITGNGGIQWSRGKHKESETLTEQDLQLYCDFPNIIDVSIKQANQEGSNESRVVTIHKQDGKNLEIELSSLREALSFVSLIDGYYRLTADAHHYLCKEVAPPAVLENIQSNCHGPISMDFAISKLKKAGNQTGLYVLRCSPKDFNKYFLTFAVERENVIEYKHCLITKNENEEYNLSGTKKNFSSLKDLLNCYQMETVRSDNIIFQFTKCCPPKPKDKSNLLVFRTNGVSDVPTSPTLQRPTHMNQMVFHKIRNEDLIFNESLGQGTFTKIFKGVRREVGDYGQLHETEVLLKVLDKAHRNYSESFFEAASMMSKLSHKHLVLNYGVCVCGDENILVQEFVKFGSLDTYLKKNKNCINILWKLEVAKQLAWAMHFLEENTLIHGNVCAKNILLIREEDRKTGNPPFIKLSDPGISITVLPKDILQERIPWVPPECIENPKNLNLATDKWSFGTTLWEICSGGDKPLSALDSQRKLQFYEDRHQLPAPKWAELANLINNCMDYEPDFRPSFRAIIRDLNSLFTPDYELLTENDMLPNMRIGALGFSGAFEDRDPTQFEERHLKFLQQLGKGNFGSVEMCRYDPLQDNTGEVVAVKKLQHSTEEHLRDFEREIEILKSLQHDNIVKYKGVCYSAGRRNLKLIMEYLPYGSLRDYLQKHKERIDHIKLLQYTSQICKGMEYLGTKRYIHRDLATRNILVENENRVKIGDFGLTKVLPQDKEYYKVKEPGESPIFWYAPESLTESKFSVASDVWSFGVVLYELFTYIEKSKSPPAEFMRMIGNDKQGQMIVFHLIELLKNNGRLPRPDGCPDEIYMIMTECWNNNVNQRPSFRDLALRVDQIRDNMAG
- protocolNotes: pSTAT5 cell assay (MSD; TF1 cells, 30 ng/mL IL-3 stimulation)
- studyConditions: 30 ng/mL IL-3, 15 minutes
Structures can show the parent of a compound that is named as a salt.
Attribute: IC50

The compound listed as Cc1cnn2cc(-c3cnn(C)c3)nc(N3C[C@@H](C)[C@@](C#N)(C4CC4)C3=O)c12 [Example 186] has a reported IC50 of > 10 µM

Measured IC50, CC(C)n1cc(-c2cc3c(N4C[C@@H](C)[C@@](C#N)(C5CC5)C4=O)ccnn3c2)cn1 [Example 167] : 1 to 5 µM

Given item C[C@@H]1CN(c2nc(-c3cnn([C@H]4C[C@@](C)(C#N)C4)c3)cn3ncc(F)c23)C(=O)[C@]1(C#N)C1CC1 [Example 307] , the value recorded as its IC50 is 1 to 5 µM

# IC50 of C[C@@H]1CN(c2ccnn3cc(-c4cn5c(n4)CCC5)cc23)C(=O)[C@]1(C#N)C1CC1 [Example 106, trifluoroacetate] = > 10 µM

Notebook: C[C@@H]1CN(c2ccnn3cc(-c4ccn(C)n4)cc23)C(=O)[C@]1(C#N)C1CC1 [Example 63] , IC50 read as > 10 µM

In plain terms, C[C@@H]1CN(c2nc(-c3cnn([C@H]4CCOC4)c3)cn3ncc(F)c23)C(=O)[C@]1(C#N)C1CC1 [Example 191] has a documented IC50 of 1 to 5 µM

C[C@@H]1CN(c2ccnc3cc(-c4cnn(C)c4)oc23)C(=O)[C@]1(C#N)C1CC1 [Example 268] yielded IC50 of > 10 µM

Measured IC50, C[C@@H]1CN(c2ccnn3cc(-c4cnn(C5CCOC5)c4)cc23)C(=O)[C@]1(C#N)C1CC1 (stereo partly drawn) [Example 162] : 1 to 5 µM

Given item C[C@@H]1CN(c2ccnn3cc(-c4cncc(F)c4)cc23)C(=O)[C@]1(C#N)C1CC1 [Example 84] , the value recorded as its IC50 is > 10 µM

// sample C[C@@H]1CN(c2ccnn3cc(-c4cnn([C@H]5C[C@@H](C#N)C5)c4)cc23)C(=O)[C@]1(C#N)C1CC1 [Example 329] , its IC50 was 0.1 to 1 µM

The compound listed as C[C@@H]1CN(c2ccnn3cc(-n4cccn4)cc23)C(=O)[C@]1(C#N)C1CC1 [Example 335] shows IC50 equal to > 10 µM

The reported IC50 of the compound C[C@@H]1CN(c2nc(-c3cnn(C4(C)COC4)c3)cn3ncc(F)c23)C(=O)[C@]1(C#N)C1CC1 [Example 300] was 1 to 5 µM

Value of measured IC50 for the entry CNC(=O)c1cc(-c2cn3nccc3c(N3C[C@@H](C)[C@@](C#N)(C4CC4)C3=O)n2)ccn1 [Example 252, trifluoroacetate] : > 10 µM

Reported IC50 ( C[C@@H]1CN(c2nc(-c3cnn(CC(F)F)c3)cc3ncsc23)C(=O)[C@]1(C#N)C1CC1 [Example 354] ) = < 0.1 µM

---

- assayedTarget: human TYK2 kinase domain (JH1) (Homo sapiens, UniProt P29597)
- Construct: recombinantly generated catalytic kinase (also known as JH1) domain of human JAK1, JAK2, JAK3 and TYK2
- protocolNotes: JH1 biochemical assay for TYK2 (ADP-Glo kinase assay, recombinant JH1 catalytic domain, JAK3-974 peptide, 10 μM ATP)
- studyConditions: JH1 kinase domain, ADP-Glo
- Protocol: Compounds of the disclosure were assessed for their ability to inhibit TYK2, JAK1, JAK2, and JAK3 activity. The inhibitory properties of the compounds of the disclosure described herein can be evidenced by testing in any one of the following protocols. The kinase activity of recombinantly generated catalytic kinase (also known as JH1) domain of human JAK1, JAK2, JAK3 and TYK2 were evaluated in a plate-based assay using the ADP-Glo™ Kinase Assay platform. […]
pIC50: −log10 of the molar value. Structures can show the parent of a compound that is named as a salt.
Reported pIC50 is given for each of the following compounds.

1. Cc1ccc2nc(-c3cc4c(N5C[C@@H](C)[C@@](C#N)(C6CC6)C5=O)ccnn4c3)nn2c1 [Example 109, trifluoroacetate]; 7.00 to 7.30

Value of pIC50 reported for the compound C[C@@H]1CN(c2ccnn3cc(-c4ccc(N(C)C)cn4)cc23)C(=O)[C@]1(C#N)C1CC1 [Example 134, trifluoroacetate] is 7.70 to 8.30

Entry under test: C[C@@H]1CN(c2ccnn3cc(-c4cnc5[nH]ccc5c4)cc23)C(=O)[C@]1(C#N)C1CC1 [Example 64] . Its pIC50 was 7.70 to 8.30

The reported value for C[C@@H]1CN(c2ccnn3cc(-c4cnn([C@H]5CC5(F)F)c4)cc23)C(=O)[C@]1(C#N)C1CC1 (single isomer, unassigned) [Example 156] in terms of pIC50 is > 8.30

Note to self: pIC50 recorded for C[C@@H]1CN(c2ccnn3cc(-c4cnn5c4CCC5)cc23)C(=O)[C@]1(C#N)C1CC1 [Example 171] was 7.70 to 8.30

Sample CC[C@H]1C[C@@](C#N)(C2CC2)C(=O)N1c1ccnn2cc(C3=NC(C)N=C3)cc12 (some centres unmarked) [Example 19] ; pIC50 observed: < 7.00

Form: compound = CC[C@H]1CN(c2ccnn3cc(-c4cnn(C)c4)cc23)C(=O)[C@@]1(C#N)C1CC1 [Example 25] ; pIC50 = < 7.00

GET /value?item= C[C@@H]1CN(c2ccnn3cc(-c4ncccc4F)cc23)C(=O)[C@]1(C#N)C1CC1 [Example 138, trifluoroacetate] &field=pIC50 returns 7.30 to 7.70

---

Quick list: pIC50 per entry.
- assayedTarget: human JAK3 kinase domain (JH1) (Homo sapiens)
- Construct: recombinantly generated catalytic kinase (also known as JH1) domain of human JAK1, JAK2, JAK3 and TYK2
- Sequence (P52333 822-1111 limits assumed): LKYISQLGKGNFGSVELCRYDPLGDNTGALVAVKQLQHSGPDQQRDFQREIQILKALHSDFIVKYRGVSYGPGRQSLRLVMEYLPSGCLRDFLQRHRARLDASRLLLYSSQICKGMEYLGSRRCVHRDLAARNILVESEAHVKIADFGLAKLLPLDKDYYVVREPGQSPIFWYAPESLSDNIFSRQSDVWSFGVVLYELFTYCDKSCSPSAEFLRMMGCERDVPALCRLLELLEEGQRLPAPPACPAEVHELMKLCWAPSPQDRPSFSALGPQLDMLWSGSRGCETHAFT
- protocolNotes: JH1 biochemical assay for JAK3 (ADP-Glo kinase assay, recombinant JH1 catalytic domain, JAK3-974 peptide, 4 μM ATP)
- studyConditions: JAK3 JH1, ADP-Glo
pIC50: −log10 of the molar value. Structures can show the parent of a compound that is named as a salt.

Study these solved cases before continuing.
1) C[C@@H]1CN(c2ccc3ncc(-c4cnn(C)c4)cn23)C(=O)[C@]1(C#N)C1CC1 [Example 283]; < 5.00
2) C[C@@H]1CN(c2ccnn3cc(-n4ccccc4=O)cc23)C(=O)[C@]1(C#N)C1CC1 [Example 340]; 5.30 to 6.00
3) C[C@@H]1CN(c2ccnn3cc(-c4cnn(C56CC(C#N)(C5)C6)c4)cc23)C(=O)[C@]1(C#N)C1CC1 [Example 320]; > 7.00
4) C[C@@H]1CN(c2nc(-c3ncc[nH]3)cn3nccc23)C(=O)[C@]1(C#N)C1CC1 [Example 247, trifluoroacetate]; < 5.00

Record COc1ncccc1-c1cn2nccc2c(N2C[C@@H](C)[C@@](C#N)(C3CC3)C2=O)n1 [Example 250] , field pIC50: 5.30 to 6.00

Form field pIC50, entry Cc1cncc(-c2cn3nccc3c(N3C[C@@H](C)[C@@](C#N)(C4CC4)C3=O)n2)c1 [Example 236] : 6.00 to 7.00

# pIC50 (molecule: C[C@@H]1CN(c2nc(-c3cnn(-c4cccnc4)c3)cn3nccc23)C(=O)[C@]1(C#N)C1CC1 [Example 294] ) is > 7.00

---

- assayedTarget: human TYK2 kinase domain (JH1) (Homo sapiens)
- Construct: recombinantly generated catalytic kinase (also known as JH1) domain of human JAK1, JAK2, JAK3 and TYK2
- Sequence (P29597 897-1176 limits assumed): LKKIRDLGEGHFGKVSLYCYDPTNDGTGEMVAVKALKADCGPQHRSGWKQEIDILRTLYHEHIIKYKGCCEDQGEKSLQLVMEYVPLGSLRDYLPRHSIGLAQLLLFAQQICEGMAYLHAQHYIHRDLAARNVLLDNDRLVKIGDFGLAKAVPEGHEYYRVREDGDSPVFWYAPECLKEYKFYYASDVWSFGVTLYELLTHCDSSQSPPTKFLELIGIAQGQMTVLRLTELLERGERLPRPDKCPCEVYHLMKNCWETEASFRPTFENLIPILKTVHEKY
- protocolNotes: JH1 biochemical assay for TYK2 (ADP-Glo kinase assay, recombinant JH1 catalytic domain, JAK3-974 peptide, 10 μM ATP)
- studyConditions: TYK2 JH1, ADP-Glo
Where a name gives a salt, the structure may show the parent alone.
assayEndpoint: IC50

As a guide, the following entries are already answered.
1) C[C@@H]1CN(c2nc(-c3cnn([C@H]4C[C@@](C)(O)C4)c3)cn3ncc(F)c23)C(=O)[C@]1(C#N)C1CC1 [Example 301]; < 5 nM
2) COc1cc(-c2cn3nccc3c(N3C[C@@H](C)[C@@](C#N)(C4CC4)C3=O)n2)c(OC)nn1 [Example 253, trifluoroacetate]; 20 to 50 nM
3) C[C@@H]1CN(c2nn(-c3cccc(=O)n3C)c3cnccc23)C(=O)[C@]1(C#N)C1CC1 [Example 279]; > 100 nM
4) C[C@@H]1CN(c2nc(-c3cnc4[nH]ccc4c3)cn3nccc23)C(=O)[C@]1(C#N)C1CC1 [Example 230]; < 5 nM
5) C[C@@H]1CN(c2nc(-c3cnn(C4CC4)c3)cc3ncsc23)C(=O)[C@]1(C#N)C1CC1 [Example 357]; < 5 nM
6) C[C@@H]1CN(c2nc(-c3ccnn3C)cn3nccc23)C(=O)[C@]1(C#N)C1CC1 [Example 254, trifluoroacetate]; 20 to 50 nM

The compound identified as C[C@@H]1CN(c2ccnn3cc(-c4cnn(CC5(C)COC5)c4)cc23)C(=O)[C@]1(C#N)C1CC1 [Example 325] registered its IC50 at < 5 nM

Record summary for CC(=O)Nc1cncc(-c2cn3nccc3c(N3C[C@@H](C)[C@@](C#N)(C4CC4)C3=O)n2)c1 [Example 249, trifluoroacetate] : reported IC50 = > 100 nM

Entry Cc1ccc(-n2nc(N3C[C@@H](C)[C@@](C#N)(C4CC4)C3=O)c3ccncc32)cn1 [Example 282] , IC50 reported as 20 to 50 nM

Measured IC50 of C[C@@H]1CN(c2ccnn3cc(-c4cn(C5COC5)nc4F)cc23)C(=O)[C@]1(C#N)C1CC1 [Example 321] : < 5 nM

Lab note: measured IC50 of C[C@@H]1CN(c2ccnn3cc(-n4cc(CC#N)cn4)cc23)C(=O)[C@]1(C#N)C1CC1 [Example 339] was 20 to 50 nM

Quick note, IC50 for C[C@@H]1CN(c2nc(-c3cnn(C)c3)cc3ncsc23)C(=O)[C@]1(C#N)C1CC1 [Example 284] landed at < 5 nM

The measured IC50 associated with C[C@@H]1CN(c2c[nH]c3ncc(-c4cnn(C)c4)cc23)C(=O)[C@]1(C#N)C1CC1 [Example 288] reads 5 to 20 nM

IC50 measured on C[C@@H]1CN(c2ccnn3cc(-c4cnn(C56CC(C#N)(C5)C6)c4)cc23)C(=O)[C@]1(C#N)C1CC1 [Example 320] = < 5 nM
